target: hJAK2 (Homo sapiens (Human))
Sequence (O60674 whole entry): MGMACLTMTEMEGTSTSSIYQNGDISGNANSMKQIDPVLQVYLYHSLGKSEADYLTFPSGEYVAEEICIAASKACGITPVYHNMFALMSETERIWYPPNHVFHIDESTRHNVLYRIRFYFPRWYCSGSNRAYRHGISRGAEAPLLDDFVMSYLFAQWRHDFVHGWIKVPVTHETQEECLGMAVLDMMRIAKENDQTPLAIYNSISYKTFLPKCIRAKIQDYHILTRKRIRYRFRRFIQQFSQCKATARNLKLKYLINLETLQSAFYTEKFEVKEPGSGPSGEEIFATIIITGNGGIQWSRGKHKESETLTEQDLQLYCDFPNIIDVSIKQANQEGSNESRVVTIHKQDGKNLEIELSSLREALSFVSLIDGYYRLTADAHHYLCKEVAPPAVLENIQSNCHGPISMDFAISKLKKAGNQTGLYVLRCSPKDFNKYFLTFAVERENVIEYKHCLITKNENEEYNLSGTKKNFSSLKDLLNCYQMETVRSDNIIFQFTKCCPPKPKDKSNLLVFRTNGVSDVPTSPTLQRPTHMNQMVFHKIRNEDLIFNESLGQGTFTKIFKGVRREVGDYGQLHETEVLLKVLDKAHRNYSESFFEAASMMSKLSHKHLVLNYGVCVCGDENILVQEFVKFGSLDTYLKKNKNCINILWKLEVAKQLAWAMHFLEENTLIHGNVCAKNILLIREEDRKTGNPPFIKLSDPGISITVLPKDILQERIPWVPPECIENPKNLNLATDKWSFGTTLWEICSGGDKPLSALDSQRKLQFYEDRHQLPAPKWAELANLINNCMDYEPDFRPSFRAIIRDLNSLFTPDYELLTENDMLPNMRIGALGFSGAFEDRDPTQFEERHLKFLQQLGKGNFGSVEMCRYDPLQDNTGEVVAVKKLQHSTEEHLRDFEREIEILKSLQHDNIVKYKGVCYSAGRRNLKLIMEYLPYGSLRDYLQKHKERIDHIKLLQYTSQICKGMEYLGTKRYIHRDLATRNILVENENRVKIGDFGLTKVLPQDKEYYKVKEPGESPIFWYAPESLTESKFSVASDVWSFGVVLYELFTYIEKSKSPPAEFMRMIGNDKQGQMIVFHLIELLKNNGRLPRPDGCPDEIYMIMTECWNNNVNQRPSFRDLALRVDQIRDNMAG
Param label: returns y when IC50 < 400 nM, returns n otherwise, including exact equality.

These recorded examples may help you get a feel for the data.
C[C@H](O)C(=O)N1CC[C@H](Oc2ccc(-c3ncnc(Nc4ccc(N5CCN(C6COC6)[C@@H](C)C5)cc4)n3)cc2C#N)C(F)(F)C1: y
C[C@H](O)C(=O)N1CC[C@H](Oc2ccc(-c3ncnc(Nc4cccc(CN5CCOCC5)c4)n3)cc2C#N)[C@H](F)C1: n
N#Cc1cc(-c2ncnc(Nc3ccc(N4CCN(C5COC5)CC4)cc3)n2)ccc1OCCC1CNC(=O)C1 (stereo not shown): n
CC(C)n1cc(Nc2ncnc(-c3ccc(O[C@H]4CCN(C(=O)[C@H](C)O)C[C@H]4F)c(C#N)c3)n2)cn1: y
CC(C)[C@H](Oc1ccc(-c2ncnc(Nc3ccc(N4CCN(C5COC5)CC4)cc3)n2)cc1C#N)C(N)=O: n
N#Cc1cc(-c2ncnc(Nc3ccc(N4CCN(C5COC5)CC4)cc3)n2)ccc1O[C@H]1CCN(C(=O)[C@@H]2CC(=O)N2)C[C@H]1F: y

Proceed to the following item.
Q: Does the reported IC50 of CC(=O)N1CC[C@@H](Oc2ccc(-c3ncnc(Nc4ccc(N5CCN(C6COC6)CC5)cc4)n3)cc2C#N)C1 stay below 400 nM?
A: n

====

biological target: UniProt Q9UHD2; experiment: TBK1 TR-FRET enzymatic assay;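 also: phosphorylation of a biotinylated Ser/Thr peptide by purified full-length recombinant TBK1, read by TR-FRET after 240 min at 25 °C, IC50 is the geometric mean of at least four runs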
Sequence (Q9UHD2 whole entry): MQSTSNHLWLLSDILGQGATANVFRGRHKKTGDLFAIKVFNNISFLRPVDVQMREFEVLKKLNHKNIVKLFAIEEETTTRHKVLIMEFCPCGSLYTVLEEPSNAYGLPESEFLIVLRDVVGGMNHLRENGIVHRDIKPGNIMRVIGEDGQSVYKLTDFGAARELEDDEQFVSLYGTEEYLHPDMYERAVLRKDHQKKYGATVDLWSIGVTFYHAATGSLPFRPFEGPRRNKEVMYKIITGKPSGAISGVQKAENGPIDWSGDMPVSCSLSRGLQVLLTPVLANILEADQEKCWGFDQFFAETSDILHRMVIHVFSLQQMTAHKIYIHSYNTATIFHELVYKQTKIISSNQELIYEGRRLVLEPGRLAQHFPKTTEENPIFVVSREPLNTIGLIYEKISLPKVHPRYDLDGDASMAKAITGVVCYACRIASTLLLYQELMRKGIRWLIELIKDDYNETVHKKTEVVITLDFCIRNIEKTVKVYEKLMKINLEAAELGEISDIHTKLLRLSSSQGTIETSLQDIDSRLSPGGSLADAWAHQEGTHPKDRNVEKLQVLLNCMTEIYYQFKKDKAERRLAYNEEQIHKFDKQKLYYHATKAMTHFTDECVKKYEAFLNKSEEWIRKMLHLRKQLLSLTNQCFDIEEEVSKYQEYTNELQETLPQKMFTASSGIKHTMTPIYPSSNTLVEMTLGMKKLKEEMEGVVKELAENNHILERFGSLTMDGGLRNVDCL
MEASURED ENDPOINT: pIC50
Quick note: pIC50 means taking -log10 of the concentration in moles per liter.

Illustrative cases are given below, each with its answer.
CN1CC[C@H](Oc2ccc(Nc3ncnc(-c4ccc(O[C@H]5CCN(C(=O)[C@@H](O)CO)C[C@H]5F)c(C#N)c4)n3)cc2)[C@H](F)C1: 8.52
CS(=O)(=O)CC(=O)N1CC[C@H](Oc2ccc(-c3ncnc(Nc4ccc(N5CCN(C6COC6)CC5)cc4)n3)cc2C#N)[C@H](F)C1: 8.40

Q: Requested field: pIC50. Item: C[C@H](O)C(=O)N1CC[C@H](Oc2ccc(-c3ncnc(Nc4ccc(N5CCN(C6COC6)CC5)c(C(F)(F)F)c4)n3)cc2C#N)[C@H](F)C1
A: 8.30

====

biological target: IKKε (Homo sapiens (Human), UniProt Q14164); assay: IKKε TR-FRET enzymatic assay; assay type: biochemical; settings: read-out: IKKe IC50
Sequence (Q14164 whole entry): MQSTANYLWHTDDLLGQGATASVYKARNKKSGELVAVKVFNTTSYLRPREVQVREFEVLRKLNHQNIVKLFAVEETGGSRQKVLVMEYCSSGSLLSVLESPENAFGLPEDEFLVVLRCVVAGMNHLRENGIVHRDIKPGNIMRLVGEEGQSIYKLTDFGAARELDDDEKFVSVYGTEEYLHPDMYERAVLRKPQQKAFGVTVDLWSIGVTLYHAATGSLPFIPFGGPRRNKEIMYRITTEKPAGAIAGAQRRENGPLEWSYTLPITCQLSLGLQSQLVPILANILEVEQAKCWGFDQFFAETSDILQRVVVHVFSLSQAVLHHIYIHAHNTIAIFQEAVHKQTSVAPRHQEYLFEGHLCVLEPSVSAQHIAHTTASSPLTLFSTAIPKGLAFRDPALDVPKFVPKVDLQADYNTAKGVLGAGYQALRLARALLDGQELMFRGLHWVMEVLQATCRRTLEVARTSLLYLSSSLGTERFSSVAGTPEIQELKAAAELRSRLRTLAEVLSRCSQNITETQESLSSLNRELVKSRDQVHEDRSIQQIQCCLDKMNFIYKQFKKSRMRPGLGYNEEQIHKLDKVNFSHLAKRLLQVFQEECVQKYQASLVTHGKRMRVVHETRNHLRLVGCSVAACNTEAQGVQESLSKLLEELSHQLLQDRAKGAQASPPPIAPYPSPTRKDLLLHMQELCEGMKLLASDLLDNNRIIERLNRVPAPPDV
API: label(entry) gives Met if the entry's IC50 is strictly smaller than 40 nM; on equality or larger values it gives Not met.

Reference set (5 entries):
N#CCC(=O)N1CC[C@@H](Oc2ccc(-c3ncnc(Nc4ccc(N5CCN(C6COC6)CC5)cc4)n3)cc2C#N)C1: Met
C[C@@H](O)C(=O)N1CCC(Oc2ccc(-c3ncnc(Nc4ccc(N5CCN(C6COC6)CC5)cc4)n3)cc2C#N)CC1: Not met
N#Cc1cc(-c2ncnc(Nc3ccc(N4CCN(C5COC5)CC4)cc3)n2)cc(F)c1OC1CCS(=O)(=O)CC1: Not met
CC(C)n1cc(Nc2ncnc(-c3ccc(O[C@H]4CCN(C(=O)CO)C[C@H]4F)c(C#N)c3)n2)cn1: Met
C[C@H]1C[C@@H](Oc2ccc(-c3ncnc(Nc4ccc(N5CCN(C6COC6)CC5)cc4)n3)cc2C#N)CN1C(=O)CO: Not met

Q: Please let me know if N#Cc1cc(-c2ncnc(Nc3ccc(N4CCOCC4)cc3)n2)ccc1NC(=O)C1CC1 shows IC50 below 40 nM.
A: Not met

Q: Field entry: N#Cc1cc(-c2ncnc(Nc3ccc(N4CCO[C@H](CO)C4)cc3)n2)ccc1O[C@H]1CCN(C(=O)CO)C[C@H]1F
A: Met

Q: // same read-out, input: CC1CN(C(=O)CO)CCC1Oc1ccc(-c2ncnc(Nc3ccc(N4CCN(C5COC5)CC4)cc3)n2)cc1C#N (centres unmarked)
A: Met
